# Tested on: FXR, BSEP and SHP gene expression in ST-2 MSCs
# measurement_notes: qPCR of FXR and FXR-target genes (BSEP, SHP) during osteoblast differentiation
# Type: cell-based, mouse
# applied_conditions: with BMP-2 50 ng/mL, 6 and 12 days; 10 μM CDCA, 5 μM GW4064, 5 μM 3 or 4; vs BMP-2-treated cells

>  <cpd_smiles>
CC(C)c1onc(-c2c(Cl)cccc2Cl)c1COc1ccc(-c2nc3ccc(C(=O)O)cc3n2C)c(Cl)c1

>  <mRNA expression level of FXR>
elevated

$$$$
>  <cpd_smiles>
C[C@H](CCC(=O)O)[C@H]1CC[C@H]2[C@@H]3[C@H](O)C[C@@H]4C[C@H](O)CC[C@]4(C)[C@H]3CC[C@]12C

>  <mRNA expression level of FXR>
elevated

$$$$
>  <cpd_smiles>
CC(C)c1onc(-c2c(Cl)cccc2Cl)c1COc1ccc(-c2nc3ccc(C(=O)O)cc3n2C)cc1Cl

>  <mRNA expression level of FXR>
elevated

$$$$
>  <cpd_smiles>
CC(C)c1onc(-c2c(Cl)cccc2Cl)c1COc1ccc(/C=C/c2cccc(C(=O)O)c2)c(Cl)c1

>  <mRNA expression level of FXR>
elevated

$$$$

Where these numbers come from: paper PMC6891315
